- Tested on: MS2 coat protein
- experimentSummary: apparent Kd, MS2 coat protein; higher = weaker binding; RNA-MaP array
- assayContext: designed as: ON switch for tryptophan; no ligand
readoutName: apparent Kd (nM)
Report the value in nM with no unit label.

Short answer please: apparent Kd, MS2 coat protein, entry UGACACAUGAGGAUCACCCAUGUCGCGAAACGAGGACCGGUACGGCCGCCACUCGCACAAACUCCUCUCCAGCACCAGCUUUUAG
19.4

And then AUUAACAUGAGGAUCACCCAUGUUUGUCUCCGAGGACCGGUACGGCCGCCACUCGCAGGUUGGAGUCGCUAUAUGGGCGUUCACU , what is it?
44.6

Can you handle UCCGCGGAGACGGCCGCCACUGAGUGAGAAGUCGUGCUCUAACUACAUGAGGAUCACCCAUGUCCCAGGACCGGGUCGAAGUGUU next?
214

// query: UUACACAUGAGGAUCACCCAUGUCUGGGAGCGAGGACCGGUACGGCCGCCACUCGAAUUGUCAGGGCUAUGCCGGACGAUGCAUC
17.1

Another sequence: ACACACAUGAGGAUCACCCAUGUCUAUAUACGAGGACCGGUACGGCCGCCACUCGUGAGAUCGCGAGAGACAGCUUUGGGCUAGU
14.6

Proceed to AGGAAUGUCACGGCCGCCACUGACGCUAAAAUGGGCUCGAGCCGACAUGAGGAUCACCCAUGUUCCAGGACCGGGUGAAUCCUGG
174

What do you get for UCUAACAUGAGGAUCACCCAUGUACCGUCCCGAGGACCGGUACGGCCGCCACUCGUCUUGCUAAAACUGAAGUGAUCACAAGCCU ?
20.2

What do we get for GCGACACUCACGGCCGCCACUGAUUAGCCCAGUAUGGAGCCCACACAUGAGGAUCACCCAUGUCACAGGACCGGGUGGGUCUAUU ?
25.8
